Biological target: T1, Human Nectin-4 (human, UniProt Q96NY8 32-349, limits assumed)
T1 construct: Protein immobilised on the SPR chip; also called target protein
T1 sequence: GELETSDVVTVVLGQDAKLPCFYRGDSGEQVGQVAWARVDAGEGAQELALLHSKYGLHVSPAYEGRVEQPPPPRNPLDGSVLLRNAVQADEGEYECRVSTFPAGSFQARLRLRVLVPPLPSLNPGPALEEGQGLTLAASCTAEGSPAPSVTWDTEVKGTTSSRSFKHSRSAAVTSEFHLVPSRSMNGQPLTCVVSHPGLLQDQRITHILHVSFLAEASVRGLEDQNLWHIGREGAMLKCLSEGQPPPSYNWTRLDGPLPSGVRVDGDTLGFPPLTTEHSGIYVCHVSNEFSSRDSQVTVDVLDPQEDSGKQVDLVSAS
Assay: Table 2B (DELFIA or SPR)
Bridges are numbered along the chain shown (N, C = ends). Primed or numbered codes have the meaning given here. Where no end group is shown, it is not given here. The star is where a group is joined. DOTA = O=C(O)CN1CCN(CC(=O)O)CCN(CC(=O)*)CCN(CC(=O)O)CC1; Biotin = O=C1N[C@H]2[C@H](CS[C@H]2CCCCC(=O)*)N1; PEG4″ = 4(ethylene glycol)
The threshold is 1 nM. Values of Kd beneath it are tagged Condition met; values meeting or exceeding it are tagged Condition not met.

Below are worked cases with known answers.
INSERT INTO results (binder, grouplabel) VALUES
  ('{Biotin-PEG4″}-CEYDEEFFTALARLRGGDICYYIQAYFQYLPGLCIEEILDNLGCS-OH (designed binder, disulfide 1-34, 20-44) [C174]', 'Condition not met'),
  ('{Biotin-PEG4″}-CEYDEEFFTALKRLRGGDICEYIQASFQYLPGECIEEILDNLGCS (designed binder, disulfide 1-34, 20-44) [C202]', 'Condition not met'),
  ('{Biotin-PEG4″}-CEYDEEFFTALARLRGGDICQYIQAKFQYLPGQCIEEILDNLGCS (designed binder, disulfide 1-34, 20-44) [C149]', 'Condition met'),
  ('Ac-CEYDEKFFTGLKRLRGGDICYYIKKKFKKVPDLCIEEILDKLGC-OH (designed binder, disulfide 1-34, 20-44) [C46]', 'Condition not met'),
  ('{Biotin-PEG4″}-CEYDEEFFTALARLRGSDICLYIQAKFQYLPGLCIEEILDNLGCS-OH (designed binder, disulfide 1-34, 20-44) [C156]', 'Condition not met');

## Task Regarding {DOTA-PEG4″}-CEYDEEFFAGLKRLRGGDICYYIKKKFDKVPDLCIEEILDKLGC-OH (designed binder, disulfide 1-34, 20-44) [C12] , kindly confirm whether its Kd is beneath 1 nM.
## Result Condition not met

## Task Regarding Ac-CEYDEEFFKALKRLRGGDICYYIKKKFKKVPKLCIEEILDKLGC-OH (designed binder, disulfide 1-34, 20-44) [C81] , kindly confirm whether its Kd is beneath 1 nM.
## Result Condition met

## Task Regarding Ac-CEYDEEFFAGLHRLRGTDICYYIKKKFPKVPDLCIEEILDKLGC-OH (designed binder, disulfide 1-34, 20-44) [C24] , kindly confirm whether its Kd is beneath 1 nM.
## Result Condition not met
